Biological target: recombinant human NK3 receptor (Homo sapiens, UniProt P29371)
Sequence (P29371 1-465): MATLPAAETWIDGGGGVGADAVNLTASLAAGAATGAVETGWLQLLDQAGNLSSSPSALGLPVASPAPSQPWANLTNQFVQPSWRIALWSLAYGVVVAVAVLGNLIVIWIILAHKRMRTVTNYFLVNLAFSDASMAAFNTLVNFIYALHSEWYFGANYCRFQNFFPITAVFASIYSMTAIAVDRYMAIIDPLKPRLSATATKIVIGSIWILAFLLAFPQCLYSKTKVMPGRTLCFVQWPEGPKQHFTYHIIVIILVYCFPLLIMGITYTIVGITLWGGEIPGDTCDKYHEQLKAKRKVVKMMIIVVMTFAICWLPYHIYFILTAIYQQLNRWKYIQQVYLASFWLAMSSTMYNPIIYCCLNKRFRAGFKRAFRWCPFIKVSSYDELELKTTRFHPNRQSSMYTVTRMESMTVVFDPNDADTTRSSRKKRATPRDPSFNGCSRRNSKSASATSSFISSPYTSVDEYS
Assay: [3H]SR142801 competition binding assay
Conditions: [3H]SR142801, membranes from HEK293 cells transiently expressing recombinant human NK3 receptor; read-out: hNK3 Ki
Protocol: [^3H]SR142801 Competition Binding Assay hNK3 receptor binding experiment were performed using [^3H]SR142801 (Catalog No. TRK1035, specific activity: 74.0 Ci/mmol, Amersham, GE Healthcare UK limited, Buckinghamshire, UK) and membrane isolated from HEK293 cells transiently expressing recombinant human NK3 receptor. […] Nonspecific binding was measured in the presence of 10 μM SB222200 for both radioligands. […]
Collected pKi values appear next to each entry.
Notebook: values listed as pKi are -log10 of the concentration (mol/L).

CC(CCN1CCCN(S(C)(=O)=O)CC1)(C(=O)NCc1ccc(C(F)(F)F)cc1)c1ccc(Cl)c(Cl)c1 (stereo not shown) [Example 117]; 7.30
C[C@@H]1CN(CCC(C)(C(=O)NCc2ccc(OC(F)(F)F)cc2)c2ccc(Cl)c(Cl)c2)CCN1S(C)(=O)=O (stereo partly shown) [Example 53]; 7.64
CC(CCN1CCN(S(C)(=O)=O)CC1)(C(=O)NCc1ccc(Cl)c(Cl)c1)c1ccc(Cl)c(Cl)c1 (stereo not shown) [Example 21]; 7.18
CC(CCN1CCN2C(CCS2(=O)=O)C1)(C(=O)N[C@@H](CO)c1ccc(F)cc1)c1ccc(Cl)c(Cl)c1 (stereo partly shown) [Example 137]; 7.52
C[C@@H]1CN(CCC(C)(C(=O)N(C)Cc2ccc(Cl)c(C(F)(F)F)c2)c2ccc(Cl)c(Cl)c2)CCN1S(C)(=O)=O (stereo partly shown) [Example 39]; 7.90

Query: What does the data say about its pKi? Entry: CN(C)c1ccc(CNC(=O)C(C)(CCN2CCCN(S(C)(=O)=O)CC2)c2ccc(Cl)c(Cl)c2)cc1 (stereo not shown) [Example 110]
Reply: 6.54

Query: What does the data say about its pKi? Entry: C[C@H]1CN(CCC(C)(C(=O)N(C)Cc2cccc(F)c2)c2ccc(Cl)c(Cl)c2)CCN1S(C)(=O)=O (stereo partly shown) [Example 89]
Reply: 6.58

Query: What does the data say about its pKi? Entry: C[C@@H]1CN(CCC(C)(C(=O)NCc2cc(F)ccc2C(F)(F)F)c2ccc(Cl)c(Cl)c2)CCN1S(C)(=O)=O (stereo partly shown) [Example 44]
Reply: 6.67

Query: What does the data say about its pKi? Entry: Cc1ccc(CN(C)C(=O)C(C)(CCN2CCN(S(C)(=O)=O)[C@H](C)C2)c2ccc(Cl)c(Cl)c2)cc1 (stereo partly shown) [Example 36]
Reply: 7.29

Query: What does the data say about its pKi? Entry: CC(CCN1CCN(S(C)(=O)=O)CC1)(C(=O)N[C@@H](CO)c1ccc(F)cc1)c1ccc(Cl)c(Cl)c1 (stereo partly shown) [Example 132]
Reply: 6.83

Query: What does the data say about its pKi? Entry: C[C@@H]1CN(CCC(C)(C(=O)NCc2cccc(OC(F)F)c2)c2ccc(Cl)c(Cl)c2)CCN1S(C)(=O)=O (stereo partly shown) [Example 43]
Reply: 7.00

Query: What does the data say about its pKi? Entry: CC(NC(=O)C(C)(CCN1CCN(S(C)(=O)=O)[C@H](C)C1)c1ccc(Cl)c(Cl)c1)c1ccc(Cl)cc1 (stereo partly shown) [Example 47]
Reply: 7.80

Query: What does the data say about its pKi? Entry: C[C@H]1CN(CCC(C)(C(=O)NCc2ccc(OC(F)(F)F)cc2)c2ccc(Cl)c(Cl)c2)CCN1S(C)(=O)=O (stereo partly shown) [Example 83]
Reply: 7.24

Query: What does the data say about its pKi? Entry: CC(NC(=O)C(C)(CCN1CCN(S(C)(=O)=O)[C@H](C)C1)c1ccc(Cl)c(Cl)c1)c1ccc(Cl)c(Cl)c1 (stereo partly shown) [Example 50]
Reply: 7.59

----------
Molecular target: recombinant human NK3 receptor (Homo sapiens)
Test: [3H]SR142801 competition binding assay
Details: [3H]SR142801, membranes from HEK293 cells transiently expressing recombinant human NK3 receptor; read-out: hNK3 Ki
Metric name: pKi
Notebook: values listed as pKi are -log10 of the concentration (mol/L).

C[C@H]1CN(CCC(C)(C(=O)NCc2cc(C(F)(F)F)cc(C(F)(F)F)c2)c2ccc(Cl)c(Cl)c2)CCN1S(C)(=O)=O (stereo partly shown); 7.07
C[C@H]1CN(CCC(C)(C(=O)N(C)Cc2ccc(C(F)(F)F)cc2)c2ccc(Cl)c(Cl)c2)CCN1S(C)(=O)=O (stereo partly shown); 7.56
CN(Cc1ccccc1Cl)C(=O)C(C)(CCN1CCCN(S(C)(=O)=O)CC1)c1ccc(Cl)c(Cl)c1 (stereo not shown); 7.51
C[C@@H]1CN(CCC(C)(C(=O)N(C)Cc2cccc(C(F)(F)F)c2)c2ccc(Cl)c(Cl)c2)CCN1S(C)(=O)=O (stereo partly shown); 7.25
C[C@H]1CN(CCC(C)(C(=O)N(C)Cc2cccc(Cl)c2)c2ccc(Cl)c(Cl)c2)CCN1S(C)(=O)=O (stereo partly shown); 6.97

Query: What does the data say about its pKi? Entry: CN(Cc1ccccc1Cl)C(=O)C(C)(CCN1CCN(S(C)(=O)=O)CC1)c1ccc(Cl)c(Cl)c1 (stereo not shown)
Reply: 6.77

Query: What does the data say about its pKi? Entry: CC(CCN1CCCN(S(C)(=O)=O)CC1)(C(=O)NCc1ccc(C(F)(F)F)c(F)c1)c1ccc(Cl)c(Cl)c1 (stereo not shown)
Reply: 7.19

----------
Biological target: recombinant human NK3 receptor (Homo sapiens)
Assay: [3H]SR142801 competition binding assay
Details: [3H]SR142801, membranes from HEK293 cells transiently expressing recombinant human NK3 receptor; read-out: hNK3 Ki
Ki strictly less than 400 nM = 1. Otherwise -1.

Solved entries (count: 3):
CC(CCN1CCCN(S(C)(=O)=O)CC1)(C(=O)NCc1ccc(Cl)c(F)c1)c1ccc(Cl)c(Cl)c1 (stereo not shown); 1
CC(CCN1CCN(S(C)(=O)=O)CC1)(C(=O)NCc1cccc(OC(F)F)c1)c1ccc(Cl)c(Cl)c1 (stereo not shown); -1
CN(Cc1ccc(Cl)c(C(F)(F)F)c1)C(=O)C(C)(CCN1CCCN(S(C)(=O)=O)CC1)c1ccc(Cl)c(Cl)c1 (stereo not shown); 1

Query: # check: Ki < 400 nM for C[C@@H]1CN(CCC(C)(C(=O)NCc2cc(C(F)(F)F)cc(C(F)(F)F)c2)c2ccc(Cl)c(Cl)c2)CCN1S(C)(=O)=O (stereo partly shown)
Reply: 1

Query: # check: Ki < 400 nM for C[C@H]1CN(CCC(C)(C(=O)NCc2cc(F)ccc2C(F)(F)F)c2ccc(Cl)c(Cl)c2)CCN1S(C)(=O)=O (stereo partly shown)
Reply: -1

Query: # check: Ki < 400 nM for CN(Cc1ccccc1Cl)C(=O)C(CCN1CCN(S(C)(=O)=O)CC1)c1ccc(Cl)c(Cl)c1 (stereo not shown)
Reply: -1

Query: # check: Ki < 400 nM for Cc1ccc(CN(C)C(=O)C(C)(CCN2CCCN(S(C)(=O)=O)CC2)c2ccc(Cl)c(Cl)c2)cc1 (stereo not shown)
Reply: 1

----------
Target: recombinant human NK3 receptor (Homo sapiens)
Sequence (P29371 1-465): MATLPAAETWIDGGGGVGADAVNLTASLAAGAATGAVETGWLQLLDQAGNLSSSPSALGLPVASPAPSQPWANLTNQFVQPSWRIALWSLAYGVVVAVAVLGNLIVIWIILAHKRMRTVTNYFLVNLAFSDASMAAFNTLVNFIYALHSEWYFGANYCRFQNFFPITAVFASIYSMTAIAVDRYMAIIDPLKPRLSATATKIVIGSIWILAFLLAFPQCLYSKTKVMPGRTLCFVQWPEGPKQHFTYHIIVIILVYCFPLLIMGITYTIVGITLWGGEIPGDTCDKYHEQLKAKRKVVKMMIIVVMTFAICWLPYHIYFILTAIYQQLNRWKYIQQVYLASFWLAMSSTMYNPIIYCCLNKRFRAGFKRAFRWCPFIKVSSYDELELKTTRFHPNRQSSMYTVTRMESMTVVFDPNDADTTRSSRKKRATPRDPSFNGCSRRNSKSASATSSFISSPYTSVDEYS
Assay: [3H]SR142801 competition binding assay
Settings: [3H]SR142801, membranes from HEK293 cells transiently expressing recombinant human NK3 receptor; read-out: hNK3 Ki
Experimental: [^3H]SR142801 Competition Binding Assay hNK3 receptor binding experiment were performed using [^3H]SR142801 (Catalog No. TRK1035, specific activity: 74.0 Ci/mmol, Amersham, GE Healthcare UK limited, Buckinghamshire, UK) and membrane isolated from HEK293 cells transiently expressing recombinant human NK3 receptor. […] Nonspecific binding was measured in the presence of 10 μM SB222200 for both radioligands. […]
pKi: −log10 of the molar value.
Label T for high-side pKi (at or above 7) and F for low-side pKi (below it).

Solved entries (count: 5):
CC(CCN1CCN2C(CCS2(=O)=O)C1)(C(=O)N[C@@H](CO)c1ccc(Cl)cc1)c1ccc(Cl)c(Cl)c1 (some centres unmarked); T
CC(CCN1CCN(S(C)(=O)=O)CC1)(C(=O)NCc1cccc(C(F)(F)F)c1)c1ccc(Cl)c(Cl)c1 (centres unmarked); F
C[C@@H]1CN(CCC(C)(C(=O)N(C)Cc2ccc(F)c(C(F)(F)F)c2)c2ccc(Cl)c(Cl)c2)CCN1S(C)(=O)=O (some centres unmarked); T
COc1ccc(CN(C)C(=O)C(C)(CCN2CCCN(S(C)(=O)=O)CC2)c2ccc(Cl)c(Cl)c2)cc1F (centres unmarked); T
COc1ccc(C(NC(=O)C(C)(CCN2CCN(S(C)(=O)=O)CC2)c2ccc(Cl)c(Cl)c2)C2CC2)cc1 (centres unmarked); F

Query: Form field: pKi at least 7? Entry: COc1cccc(CN(C)C(=O)C(C)(CCN2CCN(S(C)(=O)=O)[C@H](C)C2)c2ccc(Cl)c(Cl)c2)c1 (some centres unmarked)
Reply: F

Query: Form field: pKi at least 7? Entry: C[C@@H]1CN(CCC(C)(C(=O)NCc2ccc(Cl)c(F)c2)c2ccc(Cl)c(Cl)c2)CCN1S(C)(=O)=O (some centres unmarked)
Reply: T

Query: Form field: pKi at least 7? Entry: C[C@@H]1CN(CCC(C)(C(=O)N(C)Cc2ccc(C(F)(F)F)cc2)c2ccc(Cl)c(Cl)c2)CCN1S(C)(=O)=O (some centres unmarked)
Reply: T

Query: Form field: pKi at least 7? Entry: CC(NC(=O)C(C)(CCN1CCCN(S(C)(=O)=O)CC1)c1ccc(Cl)c(Cl)c1)c1ccc(Cl)c(Cl)c1 (centres unmarked)
Reply: T

Values compiled from patent US7592345B2.
